Numbers sourced from patent US8329918B2.

Target: alpha2C receptor (Homo sapiens)
Construct: expressed in transfected cells; host or cells: NIH-3T3
Sequence (P18825 whole entry): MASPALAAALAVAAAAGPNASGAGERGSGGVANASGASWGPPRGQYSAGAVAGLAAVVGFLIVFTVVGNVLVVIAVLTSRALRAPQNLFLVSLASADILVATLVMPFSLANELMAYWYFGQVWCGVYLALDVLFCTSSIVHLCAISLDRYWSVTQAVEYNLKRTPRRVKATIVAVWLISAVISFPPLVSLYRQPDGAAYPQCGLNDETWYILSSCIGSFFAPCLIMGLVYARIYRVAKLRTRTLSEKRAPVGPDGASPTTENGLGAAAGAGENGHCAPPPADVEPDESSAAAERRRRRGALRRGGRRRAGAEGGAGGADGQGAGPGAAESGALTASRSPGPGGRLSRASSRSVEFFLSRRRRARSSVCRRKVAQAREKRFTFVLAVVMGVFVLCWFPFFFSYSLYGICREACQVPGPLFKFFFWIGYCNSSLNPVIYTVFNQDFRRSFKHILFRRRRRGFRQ
Assay: RSAT assay, alpha 2C
Type: cell-based
Settings: RSAT; ratio of maximal effect to standard full agonist brimonidine (UK14304)
We begin with a simple list: items and their reported (rel. efficacy) Alpha 2C.
I'd appreciate a reply containing only the number, no unit.

The examples below pair each entry with its known result.
Brc1cccc(CNC2=NCCO2)c1; 0.59
Fc1cccc(CNC2=NCCO2)c1; 0.59
Cc1c(Cl)cccc1CNC1=NCCS1; 0.72

For Clc1ccccc1CNC1=NCCO1 , write its (rel. efficacy) Alpha 2C.
0.83

For FC(F)Oc1ccccc1CNC1=NCCO1 , write its (rel. efficacy) Alpha 2C.
0.74

For Fc1ccc(Br)c(CNC2=NCCO2)c1 , write its (rel. efficacy) Alpha 2C.
0.71

For Fc1c(Br)cccc1CNC1=NCCS1 , write its (rel. efficacy) Alpha 2C.
0.64

For Clc1ccccc1CNC1=NCCS1 , write its (rel. efficacy) Alpha 2C.
0.66
